- Study target: Neutrophil elastase (Homo sapiens)
- Sequence (whole entry): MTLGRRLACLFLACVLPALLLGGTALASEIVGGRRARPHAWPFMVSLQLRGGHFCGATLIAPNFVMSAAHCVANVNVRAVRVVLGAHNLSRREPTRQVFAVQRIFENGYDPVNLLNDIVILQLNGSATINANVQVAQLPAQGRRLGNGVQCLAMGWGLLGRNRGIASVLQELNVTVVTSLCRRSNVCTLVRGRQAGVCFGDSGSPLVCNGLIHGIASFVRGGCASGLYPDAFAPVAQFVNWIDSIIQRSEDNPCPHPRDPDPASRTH
- Test protocol: Ratio of Kinact to Ki for human neutrophil elastase
Kindly note that classification relies on Ratio with these boundaries: class 0: < 30000; class 1: ≥ 30000 and < 400000; class 2: ≥ 400000

Reference set (5 entries):
compound="CC(C)C[C@H]1C(=O)N(COC(=O)C(C)c2ccc(Oc3ccccc3)cc2)S(=O)(=O)N1C (stereo partly specified)" qualitative_label="class 2"
compound=CC(C)C[C@H]1C(=O)N(COC(=O)CCc2ccccc2)S(=O)(=O)N1Cc1ccccc1 qualitative_label="class 0"
compound=CC(=O)Oc1ccccc1C(=O)OCN1C(=O)[C@H](CC(C)C)N(C)S1(=O)=O qualitative_label="class 2"
compound=CC(C)C[C@H]1C(=O)N(COC(=O)c2ccccc2O)S(=O)(=O)N1Cc1ccccc1 qualitative_label="class 2"
compound=CC(C)C[C@H]1C(=O)N(COC(=O)Cc2ccccc2)S(=O)(=O)N1Cc1ccccc1 qualitative_label="class 1"

**Query** # bin lookup: classify CC(C)C[C@H]1C(=O)N(COC(=O)Cc2ccccc2Nc2c(Cl)cccc2Cl)S(=O)(=O)N1Cc1ccccc1 by its Ratio
**Result** class 0

**Query** Please answer likewise for CC(C)C[C@H]1C(=O)N(COC(=O)CCc2ccccc2)S(=O)(=O)N1C
**Result** class 1

**Query** Can you check CC(C)C[C@H]1C(=O)N(COC(=O)C(C)c2ccc(C(=O)c3ccccc3)cc2)S(=O)(=O)N1Cc1ccccc1 (stereo partly specified) next?
**Result** class 1

**Query** Now give it for CC(C)Cc1ccc(C(C)C(=O)OCN2C(=O)[C@H](CC(C)C)N(C)S2(=O)=O)cc1 (stereo partly specified) too.
**Result** class 1

**Query** And the next one, CC(C)C[C@H]1C(=O)N(COC(=O)Cc2ccccc2)S(=O)(=O)N1C ?
**Result** class 1

**Query** Now the same for CC(C)C[C@H]1C(=O)N(COC(=O)C(C)c2ccc(Oc3ccccc3)cc2)S(=O)(=O)N1Cc1ccccc1 (stereo partly specified)
**Result** class 0
